B1: Ankyrin-2, residues 3571 to 3650; numbered along this chain, Q01484 (parent)
chain: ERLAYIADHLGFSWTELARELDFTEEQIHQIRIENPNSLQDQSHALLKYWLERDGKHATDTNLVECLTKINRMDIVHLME

variants of: B1; assay: abundance fitness (aPCA) (normalised: wild type 0, dead -1); higher = more abundant; growth selection in yeast, the domain comes from the species named; settings: Homo sapiens
# abundance fitness per entry
Lab note: record just the number, no unit beside it.

Known results for variants:
[
  {
    "mutation.name": "L17C",
    "observed.measurement": -0.035
  },
  {
    "mutation.name": "E52G",
    "observed.measurement": -0.146
  },
  {
    "mutation.name": "K56W",
    "observed.measurement": -0.126
  },
  {
    "mutation.name": "N37C",
    "observed.measurement": -0.064
  },
  {
    "mutation.name": "L39G",
    "observed.measurement": -0.108
  }
]

Prompt line: Item I33L has what recorded abundance fitness?
Response line: -0.087

Prompt line: Item P36F has what recorded abundance fitness?
Response line: -0.08

Prompt line: Item E25S has what recorded abundance fitness?
Response line: -0.038

Prompt line: Item I28R has what recorded abundance fitness?
Response line: -0.22

Prompt line: Item D41T has what recorded abundance fitness?
Response line: -0.013

Prompt line: Item L51Q has what recorded abundance fitness?
Response line: 0.104

Prompt line: Item Q40E has what recorded abundance fitness?
Response line: 0.051

Prompt line: Item H44A has what recorded abundance fitness?
Response line: 0.028

Prompt line: Item T15R has what recorded abundance fitness?
Response line: -0.057

Prompt line: Item A4T has what recorded abundance fitness?
Response line: 0.109
